Kindly supply the reported melting point values for the records listed here.

Previously resolved entries follow.
CN1CCC2(CC=C(c3cc4ccccc4s3)CC2)CC1 | 89.7 to 91.2 °C
COc1cc(C2=CCC3(CCNCC3)CC2)ccc1Cl | 182 to 185 °C

Below are some compounds; for each one, tell me its melting point.
1. C1=C(c2ccc3ccccc3c2)CCC2(C1)CCNCC2
2. C1=C(c2cc3ccccc3s2)CCC2(C1)CCNCC2

Response:
["137.1 to 141.3 °C", "107.3 to 110.2 °C"]

====

reportedProperty: melting point

COc1ccc2cc(C3=CCC4(CC3)CCN(C)CC4)ccc2c1 | 146.9 to 149.5 °C
Brc1cccc(C2=CCC3(CCNCC3)CC2)n1 | 161.3 to 162.8 °C
C1=C(c2cc3ccccc3o2)CCC2(C1)CCNCC2.O=C(O)C(F)(F)F | 215.7 to 217.3 °C
Clc1ccc(C2=CCC3(CCNCC3)CC2)cc1 | 104.2 to 107.1 °C
CN1CCC2(CC=C(c3cc4ccccc4o3)CC2)CC1.O=C(O)/C=C/C(=O)O | 224.2 to 226.1 °C

For the next question, use this molecule.
# melting point of COc1ccc2cc(C3=CCC4(CCNCC4)CC3)ccc2c1 = 146.9 to 149.5 °C
